Would you kindly list GI50 for each of these molecules?
# ASSAY: Relative cell viability in HCHT screening (propidium iodide negative nuclei count)
# Assay type: cell-based
# CONDITION_SUMMARY: human, HeLa; tpre 5.5 h with FBS, then tco 0.5 h co-incubation of inhibitor and 1 (10 µM); read-out: GI50, concentration causing 50% cell growth inhibition
# From the text: With COCs 1 and 2 as cell-penetrating reporters, a fully automated, fluorescent microscopy image-based high-content high-throughput (HCHT)[19] inhibitor screening assay was developed. […] Hindered reporter uptake then causes decrease of fluorescence inside of cells (Fig. 3a). Automated data analysis[19] was established to extract average fluorescence intensity per cell and, at the same time, cell viability from propidium iodide negative nuclei count (Fig. 3 and S3–S6 ^†). […]

// query GI50 value for entry [O-][S+]1CC(O)C(O)CS1 (stereo not shown) [compound 17]
> 1000 µM

// query GI50 value for entry O=C(O)CC[C@H](NC(=O)CCCCC1CCSS1(=O)=O)C(=O)O (stereo partly shown) [compound 15]
> 1000 µM

// query GI50 value for entry O=C(CN1C(=O)C2SSC1C(=O)N2CCOc1ccccc1)NCC(=O)OC[C@H]1OC(O)[C@H](O)[C@@H](O)[C@@H]1O (stereo partly shown) [compound 7]
> 100 µM

// query GI50 value for entry O=C(O)CNC(=O)c1ccc2c(c1)SSSSS2 [compound 6]
> 20 µM

// query GI50 value for entry CCN1C(=O)C2SSSSC1C(=O)N2CC(=O)O (stereo not shown) [compound 3]
> 50 µM

// query GI50 value for entry CCN1C(=O)C2SSC1C(=O)N2CC(=O)O (stereo not shown) [compound 4]
> 20 µM

// query GI50 value for entry O=S1(=O)C[C@H](O)[C@H](O)CS1 [compound 16]
> 1000 µM

----------
Would you kindly list MIC, inhibition of cellular uptake of 2 for each of these molecules?
# Tested on: cellular uptake of 2 in HeLa Kyoto cells
# ASSAY: cells
# Assay type: cell-based
# CONDITION_SUMMARY: HeLa; tpre 0.5 h, then tco 0.5 h co-incubation of inhibitor and 2 (10 µM)
Bridge positions count the residues as written; N and C are the ends. Peptide text beside a SMILES is read from it.
Expressed in µM, but write only the number.

Write down the reported MIC, inhibition of cellular uptake of 2 of CCN1C(=O)C2SSC1C(=O)N2CC(=O)O (centres unmarked) , test system: cellular uptake of 2 in HeLa Kyoto cells.
20

Write down the reported MIC, inhibition of cellular uptake of 2 of N[C@H]1CSSC[C@@H](C(=O)N[C@@H](CCC(=O)O)C(=O)O)NC(=O)CNC1=O [compound 19] (H-CGCE-OH; disulfide 1-3) , test system: cellular uptake of 2 in HeLa Kyoto cells.
5

Write down the reported MIC, inhibition of cellular uptake of 2 of N[C@H]1CSSC[C@@H](C(=O)NCC(=O)O)NC(=O)[C@H](CCC(=O)O)NC1=O [compound 18] (H-CECG-OH; disulfide 1-3) , test system: cellular uptake of 2 in HeLa Kyoto cells.
4

Write down the reported MIC, inhibition of cellular uptake of 2 of CCN1C(=O)C2SSSSC1C(=O)N2CC(=O)O (centres unmarked) , test system: cellular uptake of 2 in HeLa Kyoto cells.
17

----------
# ASSAY: Relative cell viability in HCHT screening (propidium iodide negative nuclei count)
# Format: cell-based
# CONDITION_SUMMARY: human, GI50, concentration causing 50% cell growth inhibition
QUANTITY_KIND: GI50 at 0.5 h

// query GI50 at 0.5 h value for entry O=C(O)c1cc(SSc2ccc([N+](=O)[O-])c(C(=O)O)c2)ccc1[N+](=O)[O-] [compound 20, 5,5’-Dithiobis(2-nitrobenzoic acid), reference compound]
> 10 mM
